Attribution: patent US20210145976A1

# study-system: human serum albumin (human) (UniProt P02768)
# Sequence (P02768 25-609 limits assumed): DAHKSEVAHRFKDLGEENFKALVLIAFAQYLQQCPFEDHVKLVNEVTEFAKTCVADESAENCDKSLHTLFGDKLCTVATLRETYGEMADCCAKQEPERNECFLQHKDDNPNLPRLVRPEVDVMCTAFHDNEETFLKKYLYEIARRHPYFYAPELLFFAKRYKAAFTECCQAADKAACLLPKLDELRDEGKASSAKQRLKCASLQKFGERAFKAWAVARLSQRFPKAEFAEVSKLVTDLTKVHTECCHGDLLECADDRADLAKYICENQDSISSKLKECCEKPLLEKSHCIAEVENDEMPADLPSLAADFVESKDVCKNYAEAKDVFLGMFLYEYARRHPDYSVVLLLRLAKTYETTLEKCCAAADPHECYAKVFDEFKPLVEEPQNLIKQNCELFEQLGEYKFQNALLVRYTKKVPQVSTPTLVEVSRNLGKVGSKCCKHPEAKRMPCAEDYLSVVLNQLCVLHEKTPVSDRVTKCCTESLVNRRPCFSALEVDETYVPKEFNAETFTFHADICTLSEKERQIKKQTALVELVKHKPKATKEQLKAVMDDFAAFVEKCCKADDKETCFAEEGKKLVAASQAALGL
# protocol-summary: screening ELISA
readout-type: HSA

[
  {
    "binder": "SEQ ID NO 107 (designed binder) MLPAPKNLVVSRVTEDSARLSWTAPDAAFDSFFIQYTESHWVGEAIVLTVPGSERSYDLTGLKPGTEYAVPIEGVKGGDSSTPLSAIFTT",
    "value": 4050
  },
  {
    "binder": "SEQ ID NO 222 (designed binder) MLPAPKNLVVSRVTEDSARLSWTAPDAAFDSFYIEYFEWTGSGEAIVLTVPGSERSYDLTGLKPGTEYNVAIYGVKGGAVSYPLSAIFTT",
    "value": 3950
  },
  {
    "binder": "SEQ ID NO 257 (designed binder) MLPAPKNLVVSRVTEDSARLSWTAPDAAFDSFHIVYHEPRPSGEAIVLTVPGSERSYDLTGLKPGTEYEVGIVSVKGGDLSVPLSAIFTT",
    "value": 3950
  }
]
